# Tested on: HL-60(TB) leukemia
# procedure.summary: NCI-60 one-dose screen, 48 h
# condition.set: 10 µM unless noted
Compounds without any hit were thinned out: in the full panel of roughly 83,000, 20% have a hit. Calls of active or inactive are those of the source. The calls were made as follows: active = growth percent below 10; inactive = the rest.
Outcomes: active, inactive

{"molecule": "O=c1[nH]c(-c2ccncc2)nc2sc3c(c12)CCCCCC3", "assigned.category": "inactive"}
{"molecule": "COC(=O)c1c2c(c(C)[n+]([O-])c1C)C(=O)C(NCc1ccc(OC)cc1)=CC2=O", "assigned.category": "active"}
{"molecule": "COc1ccc(C2CC(=O)c3c(O)cc(OC4OC(COC5OC(C)C(O)C(O)C5O)C(O)C(O)C4O)cc3O2)cc1O (stereo not given)", "assigned.category": "inactive"}
{"molecule": "O=C(/C=C/c1cccc([N+](=O)[O-])c1)c1ccc(O)c(CN2CCN(c3cc4c(cc3F)c(=O)c(C(=O)O)cn4C3CC3)CC2)c1", "assigned.category": "active"}
{"molecule": "C=C1C(=O)O[C@@H]2[C@@H]3O[C@@](C)(CC/C=C(\\C)CCC[C@@H]2C)[C@H](O)C[C@@H]13", "assigned.category": "inactive"}
{"molecule": "CC(C)(C)n1cc(-c2ccnc(NCCCNS(=O)(=O)c3ccc(C(F)(F)F)cc3)c2)c(-c2cccc(F)c2)n1", "assigned.category": "inactive"}
{"molecule": "O=C1CCNC1", "assigned.category": "inactive"}
{"molecule": "CN1CC(c2ccc(Br)cc2)C(C(=O)c2ccc(Br)cc2)C12C(=O)Nc1ccccc12 (stereo not given)", "assigned.category": "inactive"}
{"molecule": "COc1cc(/C=C/C(=O)CC(=O)/C=C/c2ccc(OC(=O)C3C4CC5CC(C4)CC3C5)c(OC)c2)ccc1OC(=O)C1C2CC3CC(C2)CC1C3 (stereo not given)", "assigned.category": "inactive"}
{"molecule": "Cc1cc(N)cc(C)c1-c1c(Br)cc(N)cc1Br", "assigned.category": "inactive"}
{"molecule": "CC1(C)NC(=O)c2[nH]c3c(Cl)c(Cl)ccc3c2C1C#N (stereo not given)", "assigned.category": "inactive"}
{"molecule": "COc1ccc(C(=O)c2ccc([As]=O)cc2)cc1 (stereo not given)", "assigned.category": "active"}
{"molecule": "CC(OC(=O)Nc1cccc(Cl)c1)C(=O)O (stereo not given)", "assigned.category": "inactive"}
{"molecule": "NC(CS/C(Cl)=C/Cl)C(=O)O (stereo not given)", "assigned.category": "inactive"}
{"molecule": "c1ccc(-c2oc3ccccc3c2-c2ccccc2)cc1", "assigned.category": "inactive"}
{"molecule": "CC(Cc1nnc(SCC(=O)Nc2ccc(I)cc2)n1N)c1ccccc1 (stereo not given)", "assigned.category": "inactive"}
{"molecule": "Nc1ncnc2c1C(c1ccc([N+](=O)[O-])cc1)c1sc3c(F)cccc3c1O2 (stereo not given)", "assigned.category": "inactive"}
{"molecule": "COC(=O)Nc1nc2ccc(C(=O)c3cccc(I)c3)cc2[nH]1", "assigned.category": "active"}
{"molecule": "COc1cc(/C=N/NC(=O)c2ccccc2Nc2cccc(C(F)(F)F)c2)cc(OC)c1OC", "assigned.category": "active"}
{"molecule": "COc1ccc(-c2cnc3ccnn3c2-c2cc(OC)c(OC)c(OC)c2)cc1", "assigned.category": "active"}

The origin of these recorded values is PubChem BioAssay (NCI).
